- assay.notes: Drug repurposing screens with cells derived from glioblastoma tumor samples (AID 1345199); note: % is set by controls: 0 for no effect and ±100 for the full control effect; nearly all actives have a fitted effect of over 40% in size
- condition: GBM patient neurospheres viability, ATP luminescence, 48 h; at 45.9 µM (top of the series); tumour line B
Results filed as inconclusive are left out.
Parameter activity, negative = cell killing: see the listing below.
experimental.endpoint: activity, negative = cell killing (%)

>  <compound>
O=C(O)CN1C(=O)c2cccc3cccc(c23)C1=O

>  <reported.value>
-8.91

$$$$
>  <compound>
CN(C)CC[C@@H](c1ccc(Cl)cc1)c1ccccn1

>  <reported.value>
-9.08

$$$$
>  <compound>
CN(C)CCN(Cc1ccccc1)c1ccccn1

>  <reported.value>
-8.05

$$$$
>  <compound>
O=c1[nH]cnc2c1ncn2[C@@H]1O[C@H](CO)[C@@H](O)[C@H]1O

>  <reported.value>
9.46

$$$$
>  <compound>
OCC(CO)N[C@H]1C[C@](O)(CO)[C@@H](O)[C@H](O)[C@H]1O

>  <reported.value>
-9.88

$$$$
>  <compound>
CC(C)(C)NCC(O)COc1ccc(NC(=O)NC2CCCCC2)cc1 (stereo unspecified)

>  <reported.value>
-25.7

$$$$
>  <compound>
NC(N)=NCCC[C@H](N)C(=O)O

>  <reported.value>
-14.6

$$$$
>  <compound>
CCOC(CN1CCN(CC(C)C(=O)c2ccccc2)CC1)c1ccccc1 (stereo unspecified)

>  <reported.value>
-10.2

$$$$
>  <compound>
COC(=O)[C@H]1[C@H]2C[C@@H]3c4[nH]c5cc(OC)ccc5c4CCN3C[C@H]2C[C@@H](OC(=O)COc2ccc(OC)cc2)[C@@H]1OC

>  <reported.value>
-20.4

$$$$
>  <compound>
CN1CCC[C@@H]1Cc1c[nH]c2ccc(CCS(=O)(=O)c3ccccc3)cc12

>  <reported.value>
-21.2

$$$$
>  <compound>
NCC(=O)CCC(=O)O

>  <reported.value>
-16.2

$$$$
>  <compound>
CO/N=C(\C(=O)N[C@@H]1C(=O)N2C(C(=O)O)=C(CSc3nc(=O)c(O)nn3C)CS[C@H]12)c1csc(N)n1

>  <reported.value>
-2.24

$$$$
>  <compound>
CC(=O)NC(Cc1ccccc1)C(=O)O (stereo unspecified)

>  <reported.value>
-12.3

$$$$
>  <compound>
O=S(=O)(O)c1cc(I)c(O)c2ncccc12

>  <reported.value>
-21.6

$$$$
>  <compound>
O=c1cc[nH]c(=S)[nH]1

>  <reported.value>
-6.45

$$$$
>  <compound>
CCOc1nc2cccc(C(=O)O)c2n1Cc1ccc(-c2ccccc2-c2nn[nH]n2)cc1

>  <reported.value>
5.1

$$$$
>  <compound>
CC1=C(CC(=O)O)c2cc(F)ccc2/C1=C\c1ccc(S(C)=O)cc1 (stereo unspecified)

>  <reported.value>
-9.8

$$$$
>  <compound>
NC(=O)N/N=C/c1ccc([N+](=O)[O-])o1

>  <reported.value>
2.52

$$$$
>  <compound>
Cn1c(=O)c2c(ncn2CC2OCCO2)n(C)c1=O

>  <reported.value>
-0.596

$$$$
>  <compound>
CCCn1cnc2c1c(=O)n(CCCCC(C)=O)c(=O)n2C

>  <reported.value>
-7.91

$$$$
>  <compound>
NC1[C@H]2CN(c3nc4c(cc3F)c(=O)c(C(=O)O)cn4-c3ccc(F)cc3F)C[C@@H]12 (stereo partly specified)

>  <reported.value>
-29.1

$$$$
>  <compound>
N[C@H]1C(O)O[C@H](CO)[C@@H](O)[C@@H]1O (stereo partly specified)

>  <reported.value>
-5.64

$$$$
>  <compound>
Cc1c(Cl)cccc1Nc1ccccc1C(=O)O

>  <reported.value>
-21.5

$$$$
>  <compound>
Nc1ccc(S(=O)(=O)Nc2ccccc2)cc1

>  <reported.value>
11.7

$$$$
>  <compound>
N[C@@H](CSCCCO)C(=O)O

>  <reported.value>
0.365

$$$$
>  <compound>
C[C@H]1O[C@H](O[C@H]2[C@H](O)[C@@H](O)[C@@H](O[C@H]3[C@H](O)[C@@H](O)[C@H](O)O[C@@H]3CO)O[C@@H]2CO)[C@H](O)[C@@H](O)[C@@H]1N[C@H]1C=C(CO)[C@@H](O)[C@H](O)[C@H]1O

>  <reported.value>
-6.62

$$$$

----------
- Tested on: CRL-7250
- assay.notes: Cytotoxic Profiling of Annotated Libraries Using Quantitative High-Throughput Screening (AID 1296008); note: % is set by controls: 0 for no effect and ±100 for the full control effect; nearly all actives have a fitted effect of over 60% in size
- condition: Five cell lines viability, CellTiter-Glo ATP luminescence, 48-72 h; hits give low values
Results filed as inconclusive are left out.

>  <compound>
C=CCn1c(=O)n([C@@H]2O[C@H](CO)[C@@H](O)[C@H]2O)c2nc(N)[nH]c(=O)c21

>  <assay.target>
CRL-7250

>  <max response [%]>
-6.63

$$$$
>  <compound>
O=C1OC(OC(=O)c2cccnc2Nc2cccc(C(F)(F)F)c2)c2ccccc21 (configuration not stated)

>  <assay.target>
CRL-7250

>  <max response [%]>
1.85

$$$$
>  <compound>
NC(=O)NNc1ccccc1

>  <assay.target>
CRL-7250

>  <max response [%]>
2.83

$$$$
>  <compound>
CN1CCOC(c2ccccc2)c2ccccc2C1 (configuration not stated)

>  <assay.target>
CRL-7250

>  <max response [%]>
2.8

$$$$
>  <compound>
CN1[C@@H]2CC[C@H]1CC(OC(=O)C(O)c1ccccc1)C2 (some centres not stated)

>  <assay.target>
CRL-7250

>  <max response [%]>
1.28

$$$$
>  <compound>
CC1(C)OC(=O)NC1=O

>  <assay.target>
CRL-7250

>  <max response [%]>
4.73

$$$$
>  <compound>
OCC(CO)N[C@H]1C[C@](O)(CO)[C@@H](O)[C@H](O)[C@H]1O

>  <assay.target>
CRL-7250

>  <max response [%]>
-4.94

$$$$
>  <compound>
O=C(O)[C@@H]1CSCN1

>  <assay.target>
CRL-7250

>  <max response [%]>
-15.8

$$$$
>  <compound>
NS(=O)(=O)c1cc2c(cc1C(F)(F)F)NC(Cc1ccccc1)NS2(=O)=O (configuration not stated)

>  <assay.target>
CRL-7250

>  <max response [%]>
-4.39

$$$$
>  <compound>
O=C(CCCN1CCN(c2ccccn2)CC1)c1ccc(F)cc1

>  <assay.target>
CRL-7250

>  <max response [%]>
-29

$$$$
>  <compound>
O=C1c2c(O)cccc2Cc2cccc(O)c21

>  <assay.target>
CRL-7250

>  <max response [%]>
0.516

$$$$
>  <compound>
CC[C@@]1(c2ccccc2)NC(=O)N(C)C1=O

>  <assay.target>
CRL-7250

>  <max response [%]>
-4

$$$$
>  <compound>
CN(C)CCCN1c2ccccc2CCc2ccccc21

>  <assay.target>
CRL-7250

>  <max response [%]>
0.991

$$$$
>  <compound>
Nc1ccc(S(=O)(=O)Nc2ccc(Cl)nn2)cc1

>  <assay.target>
CRL-7250

>  <max response [%]>
-2.16

$$$$
>  <compound>
CN(C)CCCO[C@@H]1[C@H]2OC(C)(C)O[C@H]2O[C@@H]1C(O)CO (some centres not stated)

>  <assay.target>
CRL-7250

>  <max response [%]>
-6.03

$$$$
>  <compound>
O=c1cc[nH]c(=S)[nH]1

>  <assay.target>
CRL-7250

>  <max response [%]>
1.22

$$$$
>  <compound>
CC(C)(O)c1ccccc1CC[C@@H](SCC1(CC(=O)O)CC1)c1cccc(/C=C/c2ccc3ccc(Cl)cc3n2)c1

>  <assay.target>
CRL-7250

>  <max response [%]>
-23.3

$$$$
>  <compound>
O=S(=O)(O)c1cc(I)c(O)c2ncccc12

>  <assay.target>
CRL-7250

>  <max response [%]>
1.34

$$$$
>  <compound>
O=C(O)c1ccccn1

>  <assay.target>
CRL-7250

>  <max response [%]>
-6.73

$$$$
>  <compound>
N[C@H]1C(O)O[C@H](CO)[C@@H](O)[C@@H]1O (some centres not stated)

>  <assay.target>
CRL-7250

>  <max response [%]>
-7.05

$$$$
>  <compound>
c1ccc2c(CC3=NCCN3)cccc2c1

>  <assay.target>
CRL-7250

>  <max response [%]>
-1.39

$$$$
>  <compound>
CC(C(O)c1ccc(O)cc1)N1CCC(Cc2ccccc2)CC1 (configuration not stated)

>  <assay.target>
CRL-7250

>  <max response [%]>
-1.07

$$$$
>  <compound>
CCN(CC)CCSC(=O)C(c1ccccc1)c1ccccc1

>  <assay.target>
CRL-7250

>  <max response [%]>
-12.1

$$$$
>  <compound>
NC1CCN(c2cccc(Cl)n2)CC1

>  <assay.target>
CRL-7250

>  <max response [%]>
0.115

$$$$
>  <compound>
CC1=C(CC(=O)O)c2cc(F)ccc2/C1=C\c1ccc(S(C)(=O)=O)cc1

>  <assay.target>
CRL-7250

>  <max response [%]>
-16.5

$$$$
>  <compound>
COC(=O)[C@H]1[C@H]2C[C@@H]3c4[nH]c5cc(OC)ccc5c4CCN3C[C@H]2C[C@@H](OC(=O)COc2ccc(OC)cc2)[C@@H]1OC

>  <assay.target>
CRL-7250

>  <max response [%]>
-0.18

$$$$
>  <compound>
C[C@@H](O)[C@H](N)C(=O)O

>  <assay.target>
CRL-7250

>  <max response [%]>
-2.34

$$$$
>  <compound>
CC1=C(C/C=C(\C)CCC[C@H](C)CCC[C@H](C)CCCC(C)C)C(=O)c2ccccc2C1=O

>  <assay.target>
CRL-7250

>  <max response [%]>
1.2

$$$$
>  <compound>
CN1CCN(C2Cc3ccccc3Sc3ccc(Cl)cc32)CC1 (configuration not stated)

>  <assay.target>
CRL-7250

>  <max response [%]>
-15.1

$$$$
>  <compound>
CCCCOC(=O)c1ccc(O)cc1

>  <assay.target>
CRL-7250

>  <max response [%]>
0.245

$$$$
>  <compound>
N[C@H](C(=O)O)c1ccc(O)cc1

>  <assay.target>
CRL-7250

>  <max response [%]>
3.21

$$$$
>  <compound>
O=C1O[C@H]([C@@H](O)CO)C(O)=C1O

>  <assay.target>
CRL-7250

>  <max response [%]>
0.399

$$$$
>  <compound>
CC(C)(C)C(=O)C(Oc1ccc(Cl)cc1)n1ccnc1 (configuration not stated)

>  <assay.target>
CRL-7250

>  <max response [%]>
-7.22

$$$$
>  <compound>
OCc1cc(C(O)CNCCCCCCOCCCCc2ccccc2)ccc1O (configuration not stated)

>  <assay.target>
CRL-7250

>  <max response [%]>
-15.6

$$$$
>  <compound>
C[C@H]1O[C@@H](n2cc(F)c(=O)[nH]c2=O)[C@H](O)[C@@H]1O

>  <assay.target>
CRL-7250

>  <max response [%]>
-5.52

$$$$
>  <compound>
O=S(=O)(O)NC1CCCCC1

>  <assay.target>
CRL-7250

>  <max response [%]>
-7.57

$$$$
>  <compound>
Cc1ncc([N+](=O)[O-])n1CC(O)CCl (configuration not stated)

>  <assay.target>
CRL-7250

>  <max response [%]>
0.168

$$$$
>  <compound>
CO/N=C(\C(=O)N[C@@H]1C(=O)N2C(C(=O)O)=C(CSc3nc(=O)c(O)nn3C)CS[C@H]12)c1csc(N)n1

>  <assay.target>
CRL-7250

>  <max response [%]>
1.86

$$$$
>  <compound>
CCOc1nc2cccc(C(=O)O)c2n1Cc1ccc(-c2ccccc2-c2nn[nH]n2)cc1

>  <assay.target>
CRL-7250

>  <max response [%]>
-0.772

$$$$
>  <compound>
NCC(=O)CCC(=O)O

>  <assay.target>
CRL-7250

>  <max response [%]>
-2.12

$$$$
>  <compound>
CC(=O)NC(Cc1ccccc1)C(=O)O (configuration not stated)

>  <assay.target>
CRL-7250

>  <max response [%]>
2.75

$$$$
>  <compound>
C[C@@H]1C[C@H]2[C@@H]3C[C@H](F)C4=CC(=O)C=C[C@]4(C)[C@@]3(F)[C@@H](O)C[C@]2(C)[C@@]1(O)C(=O)CO

>  <assay.target>
CRL-7250

>  <max response [%]>
-4.29

$$$$
>  <compound>
CC(C)C(=O)c1c(C(C)C)nn2ccccc12

>  <assay.target>
CRL-7250

>  <max response [%]>
-8.07

$$$$
>  <compound>
CCCn1cnc2c1c(=O)n(CCCCC(C)=O)c(=O)n2C

>  <assay.target>
CRL-7250

>  <max response [%]>
-5.12

$$$$
>  <compound>
COC(=O)C1=C(C)NC(C)=C(C(=O)OC)C1c1ccccc1[N+](=O)[O-]

>  <assay.target>
CRL-7250

>  <max response [%]>
-7.51

$$$$
>  <compound>
Oc1ccc(C(O)CNCCCCCCNCC(O)c2ccc(O)c(O)c2)cc1O (configuration not stated)

>  <assay.target>
CRL-7250

>  <max response [%]>
-1.96

$$$$
>  <compound>
CCOC(=O)[C@H](CCc1ccccc1)N[C@@H](C)C(=O)N1C(=O)N(C)C[C@H]1C(=O)O

>  <assay.target>
CRL-7250

>  <max response [%]>
1.6

$$$$
